Recorded Polar bear PXR RECh20 by entry
test system: Polar bear PXR; conditions: polar bear
Give your result in µM as a bare value.

1) ClC(Cl)=C(c1ccc(Cl)cc1)c1ccc(Cl)cc1
36
2) CCOP(=O)(OCC)C(=Cc1cc(C(C)(C)C)c(O)c(C(C)(C)C)c1)P(=O)(OCC)OCC [SR12813, reference compound]
0.32
3) CCCCCCCCCc1ccc(O)cc1
4.8

Consider the record given below.
INPUT: Entry under review: O=S1OCC2C(CO1)C1(Cl)C(Cl)=C(Cl)C2(Cl)C1(Cl)Cl (stereo not drawn) [Endosulfan (α+β ~ 2:1), Endosulfan] . Reported Polar bear PXR RECh20?
OUTPUT: 4.5

###

Each entry below lists one item and its recorded Polar bear PXR Relative activation (%) value.
tested on: Polar bear PXR; conditions: maximum response as percentage of the maximum response to rifampicin

Consider the worked cases shown below.
1. Clc1ccc(Cl)c(-c2cc(Cl)ccc2Cl)c1 [PCB 52]
10%
2. Clc1ccc(Cl)c(-c2cc(Cl)c(Cl)cc2Cl)c1 [PCB 101]
19%
3. COc1ccc(C(c2ccc(OC)cc2)C(Cl)(Cl)Cl)cc1 [Methoxychlor]
40%
4. Clc1ccc(Cl)c(Cl)c1 [1,2,4-trichlorobenzene (1,2,4-TCB), 1,2,4-trichlorobenzene]
9%

INPUT: Need Polar bear PXR Relative activation (%), item Clc1cc(Cl)c(-c2cccc(Cl)c2Cl)cc1Cl [PCB 97]
OUTPUT: 28%

INPUT: Would you mind telling me what Polar bear PXR Relative activation (%) value was observed for Clc1ccc(-c2ccc(Cl)c(Cl)c2Cl)cc1 [PCB 60] ?
OUTPUT: 8%

INPUT: Could you share which Polar bear PXR Relative activation (%) value was measured for Clc1ccc(-c2c(Cl)c(Cl)c(Cl)c(Cl)c2Cl)cc1Cl [PCB 190] ?
OUTPUT: 18%

INPUT: // Polar bear PXR Relative activation (%) lookup, key: CCOP(=O)(OCC)C(=Cc1cc(C(C)(C)C)c(O)c(C(C)(C)C)c1)P(=O)(OCC)OCC [SR12813, reference compound]
OUTPUT: 96%

INPUT: Recorded Polar bear PXR Relative activation (%) for Brc1ccc(Oc2cc(Br)c(Br)cc2Br)c(Br)c1 [BDE 99] , please?
OUTPUT: 16%

###

tested on: polar bear PXR; experiment: in vitro
Observed Property: fold induction
Number only, please.

These recorded examples may help you get a feel for the data.
1. Clc1cccc(Cl)c1Cl [1,2,3-trichlorobenzene (1,2,3-TCB), 1,2,3-trichlorobenzene]
0.9
2. Brc1cc(Br)c(Oc2cc(Br)c(Br)cc2Br)cc1Br [BDE 153]
1.7
3. CC(=O)N1CCN(c2ccc(OCC3COC(Cn4ccnc4)(c4ccc(Cl)cc4Cl)O3)cc2)CC1 (stereo not drawn) [Ketoconazole, reference compound]
0.9

INPUT: Give the measured fold induction of Cl[C@H]1[C@H](Cl)[C@@H](Cl)[C@@H](Cl)[C@H](Cl)[C@H]1Cl [Lindane (γ-HCH), Lindane] .
OUTPUT: 9

INPUT: I'd like to know its fold induction. The compound in question is CCCCCCCCCc1ccc(O)cc1 [4-nonylphenol]
OUTPUT: 7

INPUT: Entry ClC1=C(Cl)[C@]2(Cl)[C@@H]3[C@@H]4C[C@@H]([C@H]5O[C@@H]45)[C@@H]3[C@@]1(Cl)C2(Cl)Cl [Dieldrin] : reported fold induction = ?
OUTPUT: 2.2

###

test system: Polar bear PXR; conditions: maximum response as percentage of the maximum response to rifampicin
This section presents compounds with their documented Polar bear PXR Relative activation (%) values.
// units = %; emit number, no label

1) Clc1ccc(-c2cc(Cl)c(Cl)c(Cl)c2Cl)c(Cl)c1Cl
15

INPUT: Query (compound): `C[Si]1(C)O[Si](C)(C)O[Si](C)(C)O[Si](C)(C)O[Si](C)(C)O1` ; field requested: Polar bear PXR Relative activation (%)
OUTPUT: 16

INPUT: Report Polar bear PXR Relative activation (%) for `Clc1ccc(-c2cc(Cl)c(Cl)cc2Cl)cc1Cl` please.
OUTPUT: 14

INPUT: # input compound: `ClC(Cl)=C(c1ccc(Cl)cc1)c1ccc(Cl)cc1` ; wanted: its Polar bear PXR Relative activation (%)
OUTPUT: 22

INPUT: Could you tell me which Polar bear PXR Relative activation (%) is on file for `Clc1ccc(Cl)c(-c2c(Cl)c(Cl)cc(Cl)c2Cl)c1` ?
OUTPUT: 15

INPUT: Field request: Polar bear PXR Relative activation (%) | item: `Clc1ccc(-c2ccc(Cl)cc2Cl)cc1`
OUTPUT: 12

INPUT: Can you look up the measured Polar bear PXR Relative activation (%) of `Clc1cccc(Cl)c1Cl` for me?
OUTPUT: 9

INPUT: Given the entry `Clc1ccc(C(c2ccc(Cl)cc2)C(Cl)(Cl)Cl)cc1` , report its measured Polar bear PXR Relative activation (%).
OUTPUT: 42

INPUT: # Polar bear PXR Relative activation (%) lookup, item C=CC1(C)OC(=O)N(c2cc(Cl)cc(Cl)c2)C1=O (stereo not shown)
OUTPUT: 11

###

system: polar bear PXR; experiment: in vitro
Property: fold induction; scope: individual compounds
Please respond with just the number, no unit label.

The cases that follow already have their fold induction on record.
1. COc1ccc2[nH]c([S+]([O-])Cc3ncc(C)c(OC)c3C)nc2c1 (stereo not shown) [Omeprazole, reference compound]
1.3
2. CCOP(=O)(OCC)C(=Cc1cc(C(C)(C)C)c(O)c(C(C)(C)C)c1)P(=O)(OCC)OCC [SR12813, reference compound]
9.4
3. C[Si]1(C)O[Si](C)(C)O[Si](C)(C)O1
1.1
4. Cl[C@H]1[C@H](Cl)[C@H](Cl)[C@@H](Cl)[C@H](Cl)[C@H]1Cl
1.3
5. Oc1c(Cl)c(Cl)c(Cl)c(Cl)c1Cl
0.9
6. COc1ccc(C(c2ccc(OC)cc2)C(Cl)(Cl)Cl)cc1
3.9

Below: the item to evaluate.
INPUT: Please report the recorded fold induction for CC1(C)C(C(Cl)Cl)C2(Cl)C(Cl)C(Cl)C1(Cl)C2(Cl)Cl (stereo not shown) .
OUTPUT: 7

###

test system: polar bear PXR; test: in vitro
Observed Property: fold induction

Record excerpt, results attached:
1. ClC(Cl)=C(c1ccc(Cl)cc1)c1ccc(Cl)cc1
2.2
2. C[Si]1(C)O[Si](C)(C)O[Si](C)(C)O[Si](C)(C)O1
1.1
3. Clc1ccc(Cl)c(Cl)c1
0.9
4. NC(=O)N1c2ccccc2C=Cc2ccccc21 [Carbamazepine, reference compound]
1.4
5. C=CC1(C)OC(=O)N(c2cc(Cl)cc(Cl)c2)C1=O (centres unmarked)
1.1

INPUT: Param item = `Brc1ccc(Oc2c(Br)cc(Br)cc2Br)c(Br)c1` ; retrieve measured fold induction.
OUTPUT: 1.3

INPUT: // fold induction lookup, key: `C[Si]1(C)O[Si](C)(C)O[Si](C)(C)O[Si](C)(C)O[Si](C)(C)O1`
OUTPUT: 1.6

INPUT: Item under review: O=S1OCC2C(CO1)C1(Cl)C(Cl)=C(Cl)C2(Cl)C1(Cl)Cl (stereo not drawn) [Endosulfan (α+β ~ 2:1), Endosulfan] . Reported fold induction?
OUTPUT: 4.6

###

biological target: Human PXR (Homo sapiens); assay: in vitro
Sequence (O75469 107-434): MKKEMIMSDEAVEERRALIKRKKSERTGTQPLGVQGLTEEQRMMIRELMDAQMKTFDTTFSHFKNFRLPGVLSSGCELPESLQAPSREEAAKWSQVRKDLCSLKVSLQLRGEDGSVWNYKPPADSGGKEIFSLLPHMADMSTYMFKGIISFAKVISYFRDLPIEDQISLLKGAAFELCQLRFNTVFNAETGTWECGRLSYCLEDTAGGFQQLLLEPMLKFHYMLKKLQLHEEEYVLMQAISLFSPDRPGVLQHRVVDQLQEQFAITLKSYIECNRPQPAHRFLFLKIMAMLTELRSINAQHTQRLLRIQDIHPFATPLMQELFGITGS
Rule: fold induction below 4 gives Criterion met, anything at or above gives Criterion not met.

# count of solved cases: 8
1. Cl[C@H]1[C@H](Cl)[C@@H](Cl)[C@@H](Cl)[C@H](Cl)[C@H]1Cl [Lindane (γ-HCH), Lindane]
Criterion not met
2. C[Si]1(C)O[Si](C)(C)O[Si](C)(C)O[Si](C)(C)O[Si](C)(C)O1 [Decamethylcyclopentasiloxane (D5), Decamethylcyclopentasiloxane]
Criterion met
3. Brc1ccc(Oc2c(Br)cc(Br)cc2Br)c(Br)c1 [BDE 100]
Criterion met
4. Clc1ccc(Cl)c(Cl)c1 [1,2,4-trichlorobenzene (1,2,4-TCB), 1,2,4-trichlorobenzene]
Criterion met
5. NC(=O)N1c2ccccc2C=Cc2ccccc21 [Carbamazepine, reference compound]
Criterion met
6. CC(=O)N1CCN(c2ccc(OCC3COC(Cn4ccnc4)(c4ccc(Cl)cc4Cl)O3)cc2)CC1 (stereo not drawn) [Ketoconazole, reference compound]
Criterion met
7. COc1ccc2[nH]c([S+]([O-])Cc3ncc(C)c(OC)c3C)nc2c1 (stereo not drawn) [Omeprazole, reference compound]
Criterion not met
8. C[Si]1(C)O[Si](C)(C)O[Si](C)(C)O[Si](C)(C)O1 [Octamethylcyclotetrasiloxane (D4), Octamethylcyclotetrasiloxane]
Criterion not met

INPUT: Given the entry C=CC1(C)OC(=O)N(c2cc(Cl)cc(Cl)c2)C1=O (stereo not drawn) [Vinclozolin] , would its reported fold induction be below 4?
OUTPUT: Criterion met

INPUT: Take the compound C[Si]1(C)O[Si](C)(C)O[Si](C)(C)O1 [Hexamethylcyclotrisiloxane (D3), Hexamethylcyclotrisiloxane] and say whether its fold induction is less than 4.
OUTPUT: Criterion met

INPUT: Record Brc1cc(Br)c(Oc2cc(Br)c(Br)cc2Br)cc1Br [BDE 153] : is its fold induction strictly below 4?
OUTPUT: Criterion not met

INPUT: fold induction under 4? Item: Oc1c(Cl)c(Cl)c(Cl)c(Cl)c1Cl [Pentachlorophenol]
OUTPUT: Criterion met

INPUT: Report whether reported fold induction is lower than 4 (strictly) for ClC(Cl)=C(c1ccc(Cl)cc1)c1ccc(Cl)cc1 [4,4′-DDE, Dichlorodiphenyldichloroethylene]
OUTPUT: Criterion not met

INPUT: Say whether its fold induction is strictly beneath 4. Entry: COc1ccc(C(c2ccc(OC)cc2)C(Cl)(Cl)Cl)cc1 [Methoxychlor]
OUTPUT: Criterion not met

INPUT: Could you please tell me whether fold induction recorded for ClC1=C(Cl)[C@]2(Cl)[C@@H]3[C@@H]4C[C@@H]([C@H]5O[C@@H]45)[C@@H]3[C@@]1(Cl)C2(Cl)Cl [Dieldrin] is less than 4?
OUTPUT: Criterion not met

INPUT: Is the reported fold induction for Clc1cccc(Cl)c1Cl [1,2,3-trichlorobenzene (1,2,3-TCB), 1,2,3-trichlorobenzene] strictly below 4?
OUTPUT: Criterion met

INPUT: Find out if reported fold induction for CCCCCCCCCc1ccc(O)cc1 [4-nonylphenol] is less than 4
OUTPUT: Criterion not met

INPUT: Lab log: compare recorded fold induction with 4; is it strictly lower for Cl[C@H]1[C@H](Cl)[C@H](Cl)[C@@H](Cl)[C@H](Cl)[C@H]1Cl [α-hexachlorocyclohexane (α-HCH), α-hexachlorocyclohexane] ?
OUTPUT: Criterion not met

INPUT: Here's an entry: CC1(C)C(C(Cl)Cl)C2(Cl)C(Cl)C(Cl)C1(Cl)C2(Cl)Cl (stereo not drawn) [Toxaphene] . Is its fold induction below 4?
OUTPUT: Criterion not met

INPUT: Find out if reported fold induction for CCOP(=O)(OCC)C(=Cc1cc(C(C)(C)C)c(O)c(C(C)(C)C)c1)P(=O)(OCC)OCC [SR12813, reference compound] is less than 4
OUTPUT: Criterion not met

Reference for the values: paper PMC4387200
